Target: human GLP-1 receptor (human, UniProt P43220 24-463)
Experiment: cell-based or functional assay
Bridge positions count the residues as written; N and C are the ends. Square brackets hold non-standard residues; d marks the D form. Ends that are not written are not given here. C20L5A = not defined here; Aib = CC(C)(N)C(=O)O
MEASURE NAME: EC50 of receptor-mediated cAMP synthesis, GLP1R (nM), 02/19
Report only the number, with the unit nM understood.

Respond only with EC50 of receptor-mediated cAMP synthesis, GLP1R (nM), 02/19 recorded for Y[Aib]EGTFTSDYSIYKDKQAA[Aib]KFVNWLLAGGPSSGAPPPS-NH2 (bridge 14-21; not fully specified (bridges); also: K4 staple carries PEG-fatty acid) [mCMD307 (2050-K4)]
0.01

Respond only with EC50 of receptor-mediated cAMP synthesis, GLP1R (nM), 02/19 recorded for Y[Aib]EGTFTSDYSIYCDKQAA[Aib]CFVNWLIAGGPSSGAPPPS-NH2 (linker 14-21 via C20L5A; not fully specified; reading uncertain) [mCMV266 (27I, C(14-21)-C20L5A)]
0.03

Respond only with EC50 of receptor-mediated cAMP synthesis, GLP1R (nM), 02/19 recorded for Y[Aib]EGTYTSDYSIYCDKQAA[Aib]CFVNWLIAGGPSSGAPPPS-NH2 (linker 14-21 via C20L5A; not fully specified; reading uncertain) [6Y, 27I, C(14-21)-C20L5A]
0.04

Respond only with EC50 of receptor-mediated cAMP synthesis, GLP1R (nM), 02/19 recorded for Y[Aib]EGTYTNDYSIYLDKCAA[Aib]EFVCWLIAGGPSSGAPPPS-NH2 (linker 17-24 via C20L5A; not fully specified; reading uncertain) [6Y, 8N, 27I, C(17-24)-C20L5A]
0.06

Respond only with EC50 of receptor-mediated cAMP synthesis, GLP1R (nM), 02/19 recorded for Y[Aib]EGTYTSDYSIYLDKCAA[Aib]EFVCWLIAGGPSSGAPPPS-NH2 (linker 17-24 via C20L5A; not fully specified; reading uncertain) [6Y, 27I, C(17-24)-C20L5A]
0.05

Respond only with EC50 of receptor-mediated cAMP synthesis, GLP1R (nM), 02/19 recorded for Y[Aib]EGTFTSDYSIYLDKCAA[Aib]EFVCWLLAGGPSSGAPPPS-NH2 (linker 17-24 via C20L5A; not fully specified; reading uncertain) [C(17-24)-C20L5A]
0.07
